# System: Vibrio parahaemolyticus
# Assay details: Antimicrobial activity against Vibrio parahaemolyticus QDIO-8 measured after 24 hrs by XTT assay
# Type: functional
# Assay conditions: QDIO-8, 24 h
For each record, write down the corresponding MIC.
Write the answer as a number in µg/mL, unit excluded.

Request: Suppose we examine the compound `C=C[C@]1(C)C=C2C(=O)C=C3C(C)(C)[C@H](O)CC[C@]3(O)[C@H]2CC1` ; what MIC value has been reported?
Response: 32

Request: Suppose we examine the compound `C=C[C@@]1(C)CCc2c3c(cc(O)c2[C@@H]1O)C(C)(C)[C@H](O)CC3` ; what MIC value has been reported?
Response: 32

Request: Suppose we examine the compound `O=C(N[C@H](CO)[C@H](O)c1ccc([N+](=O)[O-])cc1)C(Cl)Cl` ; what MIC value has been reported?
Response: 1

Request: Suppose we examine the compound `C=C[C@@]1(C)CCc2c(c(O)cc3c2CCCC3(C)C)C1` ; what MIC value has been reported?
Response: 4

Request: Suppose we examine the compound `C=C[C@]1(C)C=C2C(=O)C=C3C(C)(C)CC[C@@H](O)[C@]3(O)[C@H]2CC1` ; what MIC value has been reported?
Response: 32

====

For each record, write down the corresponding MIC.
# Tested on: Vibrio anguillarum
# Assay details: Antimicrobial activity against Vibrio anguillarum QDIO-6 measured after 24 hrs by XTT assay
# Format: functional
# Assay conditions: QDIO-6, 24 h
Write the answer as a number in µg/mL, unit excluded.

Request: Suppose we examine the compound `C=C[C@@]1(C)CCc2c3c(cc(O)c2[C@@H]1O)C(C)(C)[C@H](O)CC3` ; what MIC value has been reported?
Response: 32

Request: Suppose we examine the compound `C=C[C@]1(C)C=C2C(=O)C=C3C(C)(C)[C@H](O)CC[C@]3(O)[C@H]2CC1` ; what MIC value has been reported?
Response: 32

Request: Suppose we examine the compound O=C(N[C@H](CO)[C@H](O)c1ccc([N+](=O)[O-])cc1)C(Cl)Cl [CHLORAMPHENICOL] ; what MIC value has been reported?
Response: 0.5

====

# Test system: Alternaria brassicae
# Assay details: Antimicrobial activity against Alternaria brassicae QDAU-1 measured after 24 hrs by XTT assay
# Type: functional
# Assay conditions: QDAU-1, 24 h
Attribute measured: MIC (mg/L)
Write the answer as a number in mg/L, unit excluded.

Request: Suppose we examine the molecule `C=C[C@@]1(C)CCc2c3c(cc(O)c2[C@@H]1O)C(C)(C)[C@H](O)CC3` ; what MIC value has been reported?
Response: 32

Request: Suppose we examine the molecule `C=C[C@]1(C)C=C2C(=O)C=C3C(C)(C)CCC[C@]3(O)[C@@]2(O)CC1` ; what MIC value has been reported?
Response: 8

Request: Suppose we examine the molecule `C[C@@H]1[C@H](O)[C@@H](C)/C=C/C=C/C=C/C=C/C=C/C=C/C=C/[C@H](O[C@@H]2O[C@H](C)[C@@H](O)[C@H](N)[C@@H]2O)C[C@@H]2O[C@](O)(C[C@@H](O)C[C@@H](O)[C@H](O)CC[C@@H](O)C[C@@H](O)CC(=O)O[C@H]1C)C[C@H](O)[C@H]2C(=O)O` ; what MIC value has been reported?
Response: 32

Request: Suppose we examine the molecule `C=C[C@]1(C)C=C2C(=O)C=C3C(C)(C)CC[C@@H](O)[C@]3(O)[C@H]2CC1` ; what MIC value has been reported?
Response: 32

====

# Tested on: Aeromonas hydrophila
# Assay details: Antimicrobial activity against Aeromonas hydrophila QDIO-1 measured after 24 hrs by XTT assay
# Type: functional
# Assay conditions: QDIO-1, 24 h
For each record, write down the corresponding MIC.

Request: Suppose we examine the molecule `C=C[C@@]1(C)CCc2c(c(O)cc3c2CCCC3(C)C)C1` ; what MIC value has been reported?
Response: > 32 µg/mL

Request: Suppose we examine the molecule `O=C(N[C@H](CO)[C@H](O)c1ccc([N+](=O)[O-])cc1)C(Cl)Cl` ; what MIC value has been reported?
Response: 4 µg/mL

Request: Suppose we examine the molecule `C=C[C@@]1(C)CCc2c3c(cc(O)c2[C@H]1O)C(C)(C)[C@H](O)CC3` ; what MIC value has been reported?
Response: > 32 µg/mL

Request: Suppose we examine the molecule `C=C[C@]1(C)C=C2C(=O)C=C3C(C)(C)CCC[C@]3(O)[C@@]2(O)CC1` ; what MIC value has been reported?
Response: > 32 µg/mL

Request: Suppose we examine the molecule `C=C[C@]1(C)C=C2C(=O)C=C3C(C)(C)CC[C@@H](O)[C@]3(O)[C@H]2CC1` ; what MIC value has been reported?
Response: > 32 µg/mL

Request: Suppose we examine the molecule `C=C[C@@]1(C)CCc2c3c(cc(O)c2[C@@H]1O)C(C)(C)[C@H](O)CC3` ; what MIC value has been reported?
Response: > 32 µg/mL

Request: Suppose we examine the molecule `C=C[C@]1(C)C=C2C(=O)C=C3C(C)(C)[C@H](O)CC[C@]3(O)[C@H]2CC1` ; what MIC value has been reported?
Response: 16 µg/mL

====

# System: Fusarium graminearum
# Assay details: Antimicrobial activity against Fusarium graminearum QDAU-4 measured after 24 hrs by XTT assay
# Assay type: functional
# Assay conditions: QDAU-4, 24 h
For each record, write down the corresponding MIC.
Write the answer as a number in µg/mL, unit excluded.

Request: Suppose we examine the compound `C=C[C@@]1(C)CCc2c3c(cc(O)c2[C@@H]1O)C(C)(C)[C@H](O)CC3` ; what MIC value has been reported?
Response: 4

Request: Suppose we examine the compound `C[C@@H]1[C@H](O)[C@@H](C)/C=C/C=C/C=C/C=C/C=C/C=C/C=C/[C@H](O[C@@H]2O[C@H](C)[C@@H](O)[C@H](N)[C@@H]2O)C[C@@H]2O[C@](O)(C[C@@H](O)C[C@@H](O)[C@H](O)CC[C@@H](O)C[C@@H](O)CC(=O)O[C@H]1C)C[C@H](O)[C@H]2C(=O)O` ; what MIC value has been reported?
Response: 8

Request: Suppose we examine the compound `C=C[C@]1(C)C=C2C(=O)C=C3C(C)(C)CCC[C@]3(O)[C@@]2(O)CC1` ; what MIC value has been reported?
Response: 2

====

# System: Micrococcus luteus
# Assay details: Antimicrobial activity against Micrococcus luteus QDIO-3 measured after 24 hrs by XTT assay
# Format: functional
# Assay conditions: QDIO-3, 24 h
Attribute measured: MIC (mg/L)
Write the answer as a number in mg/L, unit excluded.

Request: Entry `O=C(N[C@H](CO)[C@H](O)c1ccc([N+](=O)[O-])cc1)C(Cl)Cl` , system Micrococcus luteus: what MIC was measured?
Response: 8

Request: Entry `C=C[C@]1(C)C=C2C(=O)C=C3C(C)(C)CCC[C@]3(O)[C@@]2(O)CC1` , system Micrococcus luteus: what MIC was measured?
Response: 4

Request: Entry `C=C[C@]1(C)C=C2C(=O)C=C3C(C)(C)CC[C@@H](O)[C@]3(O)[C@H]2CC1` , system Micrococcus luteus: what MIC was measured?
Response: 16

Request: Entry `C=C[C@@]1(C)CCc2c3c(cc(O)c2[C@@H]1O)C(C)(C)[C@H](O)CC3` , system Micrococcus luteus: what MIC was measured?
Response: 16

====

# System: Alternaria brassicae
# Assay details: Antimicrobial activity against Alternaria brassicae QDAU-1 measured after 24 hrs by XTT assay
# Format: functional
# Assay conditions: QDAU-1, 24 h
For each record, write down the corresponding MIC.

Request: Entry `C=C[C@@]1(C)CCc2c(c(O)cc3c2CCCC3(C)C)C1` , system Alternaria brassicae: what MIC was measured?
Response: > 32 µg/mL

Request: Entry `C=C[C@@]1(C)CCc2c3c(cc(O)c2[C@H]1O)C(C)(C)[C@H](O)CC3` , system Alternaria brassicae: what MIC was measured?
Response: > 32 µg/mL

Request: Entry `C=C[C@]1(C)C=C2C(=O)C=C3C(C)(C)[C@H](O)CC[C@]3(O)[C@H]2CC1` , system Alternaria brassicae: what MIC was measured?
Response: > 32 µg/mL

====

For each record, write down the corresponding MIC.
# System: Micrococcus luteus
# Assay details: Antimicrobial activity against Micrococcus luteus QDIO-3 measured after 24 hrs by XTT assay
# Format: functional
# Assay conditions: QDIO-3, 24 h

Request: Suppose we examine the compound `C=C[C@@]1(C)CCc2c3c(cc(O)c2[C@H]1O)C(C)(C)[C@H](O)CC3` ; what MIC value has been reported?
Response: > 32 µg/mL

Request: Suppose we examine the compound `C=C[C@@]1(C)CCc2c(c(O)cc3c2CCCC3(C)C)C1` ; what MIC value has been reported?
Response: > 32 µg/mL

Request: Suppose we examine the compound `C=C[C@]1(C)C=C2C(=O)C=C3C(C)(C)[C@H](O)CC[C@]3(O)[C@H]2CC1` ; what MIC value has been reported?
Response: > 32 µg/mL
